For each record, write down the corresponding inhibition at 10 µM.
molecular target: recombinant BRD4(BD1 + BD2) (Homo sapiens); experiment: BRD4 inhibition assay; type: binding; details: read-out: Inhibition rate BRD4, 10 μmol/L; tested in duplicate, average
Please append the unit to your numeric answer.

Guide cases for inhibition at 10 µM, answers given:
compound: COc1cc(OC)c2c(=O)[nH]c(-c3ccc(OCCOn4nnc5ccccc54)cc3)nc2c1 [Compound 19k]
inhibition at 10 µM: 83%
//
compound: COc1cc(OC)c2c(=O)[nH]c(-c3cc(OC)c(OCCOn4nnc5ccccc54)c(OC)c3)nc2c1 [Compound 19j]
inhibition at 10 µM: 64%
//
compound: COc1cc(OC)c2c(=O)[nH]c(-c3ccc(C(N)=O)cc3)nc2c1 [Compound 5c]
inhibition at 10 µM: 18%

Please find the next compound below.
Tell me the measured inhibition at 10 µM of COc1cc(OC)c2c(=O)[nH]c(-c3cc(Cl)ccc3OCCCCCOc3ccccc3C(N)=O)nc2c1 [Compound 19e] , please. 55%

* * *

For each record, write down the corresponding inhibition at 1 µM.
biological target: recombinant BRD4(BD1 + BD2) (Homo sapiens); test: BRD4 inhibition assay; assay type: binding; conditions: read-out: Inhibition rate BRD4, 1 μmol/L; tested in duplicate, average
Please append the unit to your numeric answer.

Guide cases for inhibition at 1 µM, answers given:
molecule: COc1cc(OC)c2c(=O)[nH]c(-c3cc(Cl)ccc3OCCCOc3ccccc3C(N)=O)nc2c1 [Compound 19b]
test.system: recombinant BRD4(BD1 + BD2) (Homo sapiens)
inhibition at 1 µM: 3%

molecule: COc1cc(OC)c2c(=O)[nH]c(-c3cc(C)c(OCCOn4nnc5ccccc54)c(C)c3)nc2c1 [Compound 19i]
test.system: recombinant BRD4(BD1 + BD2) (Homo sapiens)
inhibition at 1 µM: 18%

Working through the 2 molecules below one at a time, give inhibition at 1 µM for each.
1. COc1cc(OC)c2c(=O)[nH]c(-c3ccc(OCOc4ccccc4C(N)=O)cc3)nc2c1 [Compound 19v]
2. COc1cc(OC)c2c(=O)[nH]c(-c3ccc(OCCOc4ccc5nc[nH]c(=O)c5c4)cc3)nc2c1 [Compound 19t]

["29%", "9%"]

* * *

target: PARP1 (Homo sapiens, UniProt P09874); test: PARP1 inhibition assay; type: biochemical; details: read-out: Inhibition rate PARP1, 1 μmol/L; tested in duplicate, average
Sequence (P09874 whole entry): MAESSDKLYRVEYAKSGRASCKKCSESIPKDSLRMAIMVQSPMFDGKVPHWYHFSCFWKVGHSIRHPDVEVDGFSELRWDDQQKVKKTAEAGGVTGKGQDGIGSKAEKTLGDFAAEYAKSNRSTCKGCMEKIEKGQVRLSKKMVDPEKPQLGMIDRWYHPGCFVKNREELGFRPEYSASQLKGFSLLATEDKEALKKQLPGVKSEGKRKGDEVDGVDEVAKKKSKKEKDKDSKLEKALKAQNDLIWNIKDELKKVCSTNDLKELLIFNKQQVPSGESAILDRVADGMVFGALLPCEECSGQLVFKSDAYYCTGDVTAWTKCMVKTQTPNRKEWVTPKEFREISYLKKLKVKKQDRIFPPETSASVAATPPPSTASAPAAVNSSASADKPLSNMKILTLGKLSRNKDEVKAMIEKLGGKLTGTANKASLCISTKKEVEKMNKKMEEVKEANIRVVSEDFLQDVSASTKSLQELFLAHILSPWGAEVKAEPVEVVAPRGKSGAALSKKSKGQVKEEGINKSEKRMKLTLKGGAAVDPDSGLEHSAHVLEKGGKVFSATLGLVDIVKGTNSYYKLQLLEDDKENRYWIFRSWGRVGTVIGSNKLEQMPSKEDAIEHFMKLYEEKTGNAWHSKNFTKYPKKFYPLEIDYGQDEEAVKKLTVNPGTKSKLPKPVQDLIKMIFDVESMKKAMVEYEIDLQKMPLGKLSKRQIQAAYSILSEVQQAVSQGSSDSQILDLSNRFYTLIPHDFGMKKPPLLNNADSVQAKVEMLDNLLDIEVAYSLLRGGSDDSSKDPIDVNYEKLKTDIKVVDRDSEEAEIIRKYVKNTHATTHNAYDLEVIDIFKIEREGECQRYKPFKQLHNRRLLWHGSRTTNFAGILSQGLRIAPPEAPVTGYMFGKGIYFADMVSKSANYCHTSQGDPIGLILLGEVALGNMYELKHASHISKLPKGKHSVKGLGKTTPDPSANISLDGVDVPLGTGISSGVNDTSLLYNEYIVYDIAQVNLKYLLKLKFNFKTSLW
Param threshold (3%) applies to inhibition at 1 µM; output T when value >= threshold, F when value < threshold.

Use the examples below as a reference point.
compound: COc1cc(OC)c2c(=O)[nH]c(-c3cccc(C(=O)N4CCN(C(=O)C5CC5)CC4)c3)nc2c1 [Compound 11a]
test.system: PARP1 (Homo sapiens, UniProt P09874)
qualitative.label: T
--
compound: COc1cc(OC)c2c(=O)[nH]c(-c3cc(OC)c(OCCOc4ccc5cn[nH]c5c4)c(OC)c3)nc2c1 [Compound 19n]
test.system: PARP1 (Homo sapiens, UniProt P09874)
qualitative.label: T
--
compound: COc1cc(OC)c2c(=O)[nH]c(-c3ccc(OCCOc4ccc5nc[nH]c(=O)c5c4)cc3)nc2c1 [Compound 19t]
test.system: PARP1 (Homo sapiens, UniProt P09874)
qualitative.label: F
--
compound: CNC(=O)c1ccc(-c2nc3ccccc3c(=O)[nH]2)cc1
test.system: PARP1 (Homo sapiens, UniProt P09874)
qualitative.label: F

Okay, next one:
Confirm if inhibition at 1 µM reported for the compound COc1cc(OC)c2c(=O)[nH]c(-c3ccc(OCOc4ccccc4C(N)=O)cc3)nc2c1 [Compound 19v] is 3% or above. T

* * *

For each record, write down the corresponding inhibition at 1 µM.
target: recombinant BRD4(BD1 + BD2) (Homo sapiens, UniProt O60885); assay: BRD4 inhibition assay; type: binding; conditions: read-out: Inhibition rate BRD4, 1 μmol/L; tested in duplicate, average
One number for each entry, in %.

Guide cases for inhibition at 1 µM, answers given:
compound: COc1cc(OC)c2c(=O)[nH]c(-c3ccc(C(=O)N4CCn5c(nnc5C(F)(F)F)C4)cc3F)nc2c1 [Compound 15c]
inhibition at 1 µM / %: 5
--
compound: COc1cc(OC)c2c(=O)[nH]c(-c3ccc(C(N)=O)cc3)nc2c1
inhibition at 1 µM / %: 1
--
compound: COc1cc(OC)c2c(=O)[nH]c(-c3ccc(OCCOn4nnc5ccccc54)cc3)nc2c1 [Compound 19k]
inhibition at 1 µM / %: 13

Tell me the measured inhibition at 1 µM of COc1cc(OC)c2c(=O)[nH]c(-c3cc(OC)c(OCCOc4ccccc4C(N)=O)c(OC)c3)nc2c1 [Compound 19g] , please. 15

* * *

molecular target: PARP1 (Homo sapiens); test: PARP1 inhibition assay; assay type: biochemical; conditions: read-out: Inhibition rate PARP1, 10 μmol/L; tested in duplicate, average
Param threshold (40%) applies to inhibition at 10 µM; output 1.0 when value >= threshold, 0.0 when value < threshold.

Use the examples below as a reference point.
compound: COc1cc(OC)c2c(=O)[nH]c(-c3cc(C)c(OCCOc4ccc5cn[nH]c5c4)c(C)c3)nc2c1 [Compound 19m]
test.system: PARP1 (Homo sapiens)
qualitative.label: 0.0
--
compound: COc1cc(OC)c2c(=O)[nH]c(-c3cc(OC)c(OCCOc4ccccc4C(N)=O)c(OC)c3)nc2c1 [Compound 19g]
test.system: PARP1 (Homo sapiens)
qualitative.label: 1.0

Okay, next one:
Confirm if inhibition at 10 µM reported for the compound COc1cc(OC)c2c(=O)[nH]c(-c3ccc(C(=O)N4CCN(C(=O)C5CC5)CC4)cc3F)nc2c1 [Compound 15a] is 40% or above. 1.0

* * *

biological target: recombinant BRD4(BD1 + BD2) (Homo sapiens, UniProt O60885); experiment: BRD4 inhibition assay; format: binding; conditions: read-out: Inhibition rate BRD4, 10 μmol/L; tested in duplicate, average
endpoint.name: inhibition at 10 µM (%)
Give bare numbers, in %.

Guide cases for inhibition at 10 µM, answers given:
compound: COc1cc(OC)c2c(=O)[nH]c(-c3cc(Cl)ccc3OCCOc3ccccc3C(N)=O)nc2c1 [Compound 19a]
test.system: recombinant BRD4(BD1 + BD2) (Homo sapiens, UniProt O60885)
units.text: %
inhibition at 10 µM: 90

compound: COc1cc(OC)c2c(=O)[nH]c(-c3cc(C)c(OCCOc4ccccc4C(N)=O)c(C)c3)nc2c1 [Compound 19f]
test.system: recombinant BRD4(BD1 + BD2) (Homo sapiens, UniProt O60885)
units.text: %
inhibition at 10 µM: 74

compound: COc1cc(OC)c2c(=O)[nH]c(-c3ccc(OCCOn4nnc5ccccc54)c(Cl)c3)nc2c1 [Compound 19p]
test.system: recombinant BRD4(BD1 + BD2) (Homo sapiens, UniProt O60885)
units.text: %
inhibition at 10 µM: 44

compound: COc1cc(OC)c2c(=O)[nH]c(-c3ccc(OCCOc4ccc5cn[nH]c5c4)cc3)nc2c1 [Compound 19o]
test.system: recombinant BRD4(BD1 + BD2) (Homo sapiens, UniProt O60885)
units.text: %
inhibition at 10 µM: 56

compound: COc1cccc2nc(-c3cccc(C(=O)N4CCN(C(=O)C5CC5)CC4)c3)[nH]c(=O)c12 [Compound 11e]
test.system: recombinant BRD4(BD1 + BD2) (Homo sapiens, UniProt O60885)
units.text: %
inhibition at 10 µM: 30

Working through the 5 compounds below one at a time, give inhibition at 10 µM for each.
1. COc1cc(OC)c2c(=O)[nH]c(-c3ccc(OCOc4ccccc4C(N)=O)cc3)nc2c1 [Compound 19v]
2. COc1cc(OC)c2c(=O)[nH]c(-c3cc(F)ccc3OCCOc3ccccc3C(N)=O)nc2c1 [Compound 19s]
3. O=C(c1cccc(-c2nc3ccccc3c(=O)[nH]2)c1)N1CCN(C(=O)C2CC2)CC1 [Compound 11b]
4. COc1cc(OC)c2c(=O)[nH]c(-c3cc(Cl)ccc3OCCCOc3ccccc3C(N)=O)nc2c1 [Compound 19b]
5. O=c1[nH]c(-c2cccc3nc[nH]c23)nc2ccccc12

1: 60; 2: 74; 3: 43; 4: 69; 5: 11

Working through the 7 compounds below one at a time, give inhibition at 10 µM for each.
1. COc1cc(OC)c2c(=O)[nH]c(-c3ccc(OCCOc4ccc5nc[nH]c(=O)c5c4)cc3)nc2c1 [Compound 19t]
2. COc1cc(OC)c2c(=O)[nH]c(-c3ccc4cc[nH]c4c3)nc2c1
3. O=c1[nH]c(-c2ccc(N3CCOCC3)cc2)nc2ccccc12
4. COc1cc(OC)c2c(=O)[nH]c(-c3cc(C)c(OCCOc4ccc5cn[nH]c5c4)c(C)c3)nc2c1 [Compound 19m]
5. COc1cc(OC)c2c(=O)[nH]c(-c3cccc4nc[nH]c34)nc2c1
6. COc1cc(OC)c2c(=O)[nH]c(-c3cc(OC)c(OCCOc4ccc5cn[nH]c5c4)c(OC)c3)nc2c1 [Compound 19n]
7. COc1cc(OC)c2c(=O)[nH]c(-c3ccc(C(=O)N4CCN(C(=O)C5CC5)CC4)cc3F)nc2c1 [Compound 15a]

1: 67; 2: 13; 3: 55; 4: 46; 5: 42; 6: 45; 7: 68
